target system: T1, recombinant human CD30L isoleucine zipper (huCD30L LZ) (human, UniProt P32971 63-234)
T1 construct: also called huCD38L LZ; CD30L LZ Hu; not shown: N-terminal isoleucine zipper motif (leucine zipper with leucines replaced by isoleucines)
T1 sequence: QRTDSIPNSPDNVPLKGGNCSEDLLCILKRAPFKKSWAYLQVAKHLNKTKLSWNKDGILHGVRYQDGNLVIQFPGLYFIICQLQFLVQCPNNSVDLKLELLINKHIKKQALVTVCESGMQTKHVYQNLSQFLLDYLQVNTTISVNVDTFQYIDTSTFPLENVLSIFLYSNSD
measurement description: blocking of human CD30L LZ binding to K299 cells (CD30)
property label: IC50 (nM)
Your answer should be a plain number; it is taken to be in nM.

# lookup: IC50 of Antibody A1 (antibody, V domains shown, also called mAb A1; Antibody A1 IgG2) VH: QVQLQESGPGLVKPSETLSLTCTVSGGSISSYIWSWIRQPAGKGLEWIGRIYASGNTNYNPSLKSRVTISVDTSKNQFSLKLSSMTAADTAVYYCARDYRVAGTYYYYYGLDVWGQGTTVTVSS VL: QSALTQPASVSGSPGQSITISCTGTSSDVGVYDYVSWYQQHPGKAPKLMIYEVSNRPSGVSNRFSGSKSGNTASLTISGLQTEDEADYYCSSYTSRSTWVFGGGTKLTVL 1.4

Param item: Antibody C (antibody, V domains shown, also called mAb C) VH: QVQLQESGPGLVKPSETLSLTCTVSGGSISSYYWTWIRQPAGKGLEWIGRIYTSGITNYNPSLKSRVTMSVDTSKNQFSLKLSSVTAADTAVYYCARERVVGASRYYYYGVDVWGQGTTVTVSS VL: QSALTQPASVSGSPGQSITISCTGTSSDIGLYDYVSWYQQHPDRAPKLIIFEVNNRPSGVSYRFSGSNSGNTASLTISGLQAEDEADYYCSSYTSSSTWVFGGGTKLTVL 1.9

For Antibody B (antibody, V domains shown, also called mAb B) VH: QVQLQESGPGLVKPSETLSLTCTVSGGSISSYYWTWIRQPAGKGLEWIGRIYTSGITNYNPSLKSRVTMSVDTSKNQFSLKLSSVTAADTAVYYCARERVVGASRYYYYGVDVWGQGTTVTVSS VL: QSALTQPASVSGSPGQSITISCTGTSSDVGLYNYVSWYQQHPDKAPKLMIFEVNNRPSGVSNRFSGSNSGNTASLTISGLQAEDEADYYCSSYTSSSTWVFGGGTKLTVL then? 2.5
